The values you see were collected from patent US11986540B2.

Assay: Single IV dose toxicokinetics in dogs
Type: in vivo
Conditions: dog, in vivo; male dogs, 9.3 mg/kg single IV, Study Day 0
Procedure: Following a single IV administration of pafolacianine to male and female dogs, systemic exposure (C0, AUClast) to pafolacianine appeared similar between males and females at all dose levels (Table 3). Similar to rats, dog AUClast values were calculated from a range of concentration-time data with Tlast values varying from 5 minutes to 4 hours. In addition, there were limited dogs with reportable TK at 0.9 mg/kg (N=1-2). As a consequence, dose proportionality was not assessed for dogs. […]
Metric: AUC(0-t) (ng·h/mL)

Compound | Metric | Units | Test result
CC1(C)C(=CC=C2CCCC(C=CC3=[N+](CCCCS(=O)(=O)[O-])c4ccc(S(=O)(=O)O)cc4C3(C)C)=C2Oc2ccc(CC(NC(=O)c3ccc(NCc4cnc5nc(N)[nH]c(=O)c5n4)cc3)C(=O)O)cc2)N(CCCCS(=O)(=O)O)c2ccc(S(=O)(=O)O)cc21 (stereo not shown) [pafolacianine] | AUC(0-t) | ng·h/mL | 16800

* * *

experiment: Phase 1a pharmacokinetics in healthy volunteers, single IV administration; assay type: in vivo, human; settings: human, plasma, intravenous, 0.05 mg/kg, in 220 ml 5% dextrose, 60-min infusion; read-out: Vz

Compound | Vd
CC1(C)C(=CC=C2CCCC(C=CC3=[N+](CCCCS(=O)(=O)[O-])c4ccc(S(=O)(=O)O)cc4C3(C)C)=C2Oc2ccc(CC(NC(=O)c3ccc(NCc4cnc5nc(N)[nH]c(=O)c5n4)cc3)C(=O)O)cc2)N(CCCCS(=O)(=O)O)c2ccc(S(=O)(=O)O)cc21 (stereo not shown) | 19.2 L

* * *

test: Repeat once-weekly IV dose toxicokinetics in dogs; type: in vivo; details: female, dog, in vivo, iv, 9.3 mg/kg, dogs F, 9.3 mg/kg once-weekly IV, Day 13; read-out: Vss
Metric: Vd (L/kg)

Compound | Metric | Test result
CC1(C)C(=CC=C2CCCC(C=CC3=[N+](CCCCS(=O)(=O)[O-])c4ccc(S(=O)(=O)O)cc4C3(C)C)=C2Oc2ccc(CC(NC(=O)c3ccc(NCc4cnc5nc(N)[nH]c(=O)c5n4)cc3)C(=O)O)cc2)N(CCCCS(=O)(=O)O)c2ccc(S(=O)(=O)O)cc21 (stereo not shown) | Vd | 1.94

* * *

assay: Repeat once-weekly IV dose toxicokinetics in dogs; assay type: in vivo; settings: female, dog, in vivo, iv, 0.9 mg/kg, dogs F, 0.9 mg/kg once-weekly IV, Day 0
Metric: C0

Molecule | Metric | Test result
CC1(C)C(=CC=C2CCCC(C=CC3=[N+](CCCCS(=O)(=O)[O-])c4ccc(S(=O)(=O)O)cc4C3(C)C)=C2Oc2ccc(CC(NC(=O)c3ccc(NCc4cnc5nc(N)[nH]c(=O)c5n4)cc3)C(=O)O)cc2)N(CCCCS(=O)(=O)O)c2ccc(S(=O)(=O)O)cc21 (stereo not shown) | C0 | 4.75 µg/mL

* * *

assay: Repeat once-weekly IV dose toxicokinetics in rats; assay type: in vivo; details: female, rat, in vivo, iv, 46.3 mg/kg, rats F, 46.3 mg/kg once-weekly IV, Day 13
Metric: clearance (mL/min/kg)

Compound | Units | Test result
CC1(C)C(=CC=C2CCCC(C=CC3=[N+](CCCCS(=O)(=O)[O-])c4ccc(S(=O)(=O)O)cc4C3(C)C)=C2Oc2ccc(CC(NC(=O)c3ccc(NCc4cnc5nc(N)[nH]c(=O)c5n4)cc3)C(=O)O)cc2)N(CCCCS(=O)(=O)O)c2ccc(S(=O)(=O)O)cc21 (stereo not shown) [pafolacianine] | mL/min/kg | 2

* * *

assay: Repeat once-weekly IV dose toxicokinetics in rats; assay type: in vivo; conditions: male, rat, in vivo, iv, 3.1 mg/kg, rats M, 3.1 mg/kg once-weekly IV, Day 13

Compound | C0
CC1(C)C(=CC=C2CCCC(C=CC3=[N+](CCCCS(=O)(=O)[O-])c4ccc(S(=O)(=O)O)cc4C3(C)C)=C2Oc2ccc(CC(NC(=O)c3ccc(NCc4cnc5nc(N)[nH]c(=O)c5n4)cc3)C(=O)O)cc2)N(CCCCS(=O)(=O)O)c2ccc(S(=O)(=O)O)cc21 (stereo not shown) | 24000 ng/mL

* * *

assay: Repeat once-weekly IV dose toxicokinetics in rats; assay type: in vivo; settings: female, rat, in vivo, iv, 46.3 mg/kg, rats F, 46.3 mg/kg once-weekly IV, Day 13; read-out: T1/2 (converted)

Compound | half-life, h
CC1(C)C(=CC=C2CCCC(C=CC3=[N+](CCCCS(=O)(=O)[O-])c4ccc(S(=O)(=O)O)cc4C3(C)C)=C2Oc2ccc(CC(NC(=O)c3ccc(NCc4cnc5nc(N)[nH]c(=O)c5n4)cc3)C(=O)O)cc2)N(CCCCS(=O)(=O)O)c2ccc(S(=O)(=O)O)cc21 (stereo not shown) | 5.76

* * *

assay: Repeat once-weekly IV dose toxicokinetics in rats; assay type: in vivo; conditions: female, rat, in vivo, iv, 30.8 mg/kg, rats F, 30.8 mg/kg once-weekly IV, Day 13; read-out: Vss

Compound | Units | Vd
CC1(C)C(=CC=C2CCCC(C=CC3=[N+](CCCCS(=O)(=O)[O-])c4ccc(S(=O)(=O)O)cc4C3(C)C)=C2Oc2ccc(CC(NC(=O)c3ccc(NCc4cnc5nc(N)[nH]c(=O)c5n4)cc3)C(=O)O)cc2)N(CCCCS(=O)(=O)O)c2ccc(S(=O)(=O)O)cc21 (stereo not shown) | L/kg | 0.773

* * *

Experiment: Repeat once-weekly IV dose toxicokinetics in dogs
Type: in vivo
Settings: male, dog, in vivo, iv, 13.9 mg/kg, dogs M, 13.9 mg/kg once-weekly IV, Day 13
Protocol: Overall, drug concentrations increased with ascending dose, noting that the mean profiles at the two highest dose levels were overlapping. Systemic exposure (AUClast) to pafolacianine was approximately dose-proportional over the range of doses administered (0.9 to 13.9 mg/kg) and within the observed variability (Table 5). […] On both Day 0 and Day 13, CL was slow (relative to hepatic blood flow) and Vss was moderate. Mean T1/2 ranged from approximately 13 to 18 hours.
Metric: clearance

Compound | Metric | Test result
CC1(C)C(=CC=C2CCCC(C=CC3=[N+](CCCCS(=O)(=O)[O-])c4ccc(S(=O)(=O)O)cc4C3(C)C)=C2Oc2ccc(CC(NC(=O)c3ccc(NCc4cnc5nc(N)[nH]c(=O)c5n4)cc3)C(=O)O)cc2)N(CCCCS(=O)(=O)O)c2ccc(S(=O)(=O)O)cc21 (stereo not shown) | clearance | 2 mL/min/kg

* * *

experiment: Repeat once-weekly IV dose toxicokinetics in rats; assay type: in vivo; conditions: female, rat, in vivo, iv, 3.1 mg/kg, rats F, 3.1 mg/kg once-weekly IV, Day 0

Molecule | clearance
CC1(C)C(=CC=C2CCCC(C=CC3=[N+](CCCCS(=O)(=O)[O-])c4ccc(S(=O)(=O)O)cc4C3(C)C)=C2Oc2ccc(CC(NC(=O)c3ccc(NCc4cnc5nc(N)[nH]c(=O)c5n4)cc3)C(=O)O)cc2)N(CCCCS(=O)(=O)O)c2ccc(S(=O)(=O)O)cc21 (stereo not shown) | 2.72 mL/min/kg

* * *

experiment: Single IV dose toxicokinetics in rats; type: in vivo; settings: rat, in vivo; female rats, 46.3 mg/kg single IV, Study Day 0

Molecule | AUC(0-t), µg·h/mL
CC1(C)C(=CC=C2CCCC(C=CC3=[N+](CCCCS(=O)(=O)[O-])c4ccc(S(=O)(=O)O)cc4C3(C)C)=C2Oc2ccc(CC(NC(=O)c3ccc(NCc4cnc5nc(N)[nH]c(=O)c5n4)cc3)C(=O)O)cc2)N(CCCCS(=O)(=O)O)c2ccc(S(=O)(=O)O)cc21 (stereo not shown) [pafolacianine] | 255

* * *

experiment: Repeat once-weekly IV dose toxicokinetics in dogs; type: in vivo; settings: female, dog, in vivo, iv, 13.9 mg/kg, dogs F, 13.9 mg/kg once-weekly IV, Day 0
Metric: AUC(0-t) (ng·h/mL)

Molecule | Metric | Units | Test result
CC1(C)C(=CC=C2CCCC(C=CC3=[N+](CCCCS(=O)(=O)[O-])c4ccc(S(=O)(=O)O)cc4C3(C)C)=C2Oc2ccc(CC(NC(=O)c3ccc(NCc4cnc5nc(N)[nH]c(=O)c5n4)cc3)C(=O)O)cc2)N(CCCCS(=O)(=O)O)c2ccc(S(=O)(=O)O)cc21 (stereo not shown) | AUC(0-t) | ng·h/mL | 79800

* * *

test: Single IV dose toxicokinetics in rats; format: in vivo; conditions: rat, in vivo; female rats, 30.8 mg/kg single IV, Study Day 0
Metric: AUC(0-t)

Molecule | Test result
CC1(C)C(=CC=C2CCCC(C=CC3=[N+](CCCCS(=O)(=O)[O-])c4ccc(S(=O)(=O)O)cc4C3(C)C)=C2Oc2ccc(CC(NC(=O)c3ccc(NCc4cnc5nc(N)[nH]c(=O)c5n4)cc3)C(=O)O)cc2)N(CCCCS(=O)(=O)O)c2ccc(S(=O)(=O)O)cc21 (stereo not shown) | 166 µg·h/mL
